Test: AUC (0 to 8 hrs) in Sprague-Dawley rat at 2 mg/kg, iv or 5 mg/kg, po
Type: ADME, organism-based
Details: plasma
MEASURED QUANTITY: AUC(0-t) (µM·h)

{"SAMPLE SMILES": "C[C@H](C#N)NC(=O)c1cccc(-c2cc(-c3ccc(CNC4CCOCC4)cc3)on2)c1", "MEASURED QUANTITY": "AUC(0-t)", "UNITS SYMBOL": "µM·h", "VALUE": 0.84}

* * *

Assay: Volume of distribution at steady state in Sprague-Dawley rat at 2 mg/kg, iv or 5 mg/kg, po
Assay type: ADME, organism-based
Conditions: in vivo, read-out: Vdss
MEASURED QUANTITY: Vd

{"SAMPLE SMILES": "C[C@H](C#N)NC(=O)c1cccc(-c2cc(-c3ccc(CNC4CCOCC4)cc3)on2)c1", "MEASURED QUANTITY": "Vd", "VALUE": "6 L/kg"}

* * *

Test: Solubility of the compound
Type: physicochemical
Each record here notes measured solubility.
MEASURED QUANTITY: solubility

{"SAMPLE SMILES": "CN1CCN(c2ccc(-c3cc(-c4cccc(C(=O)NCCO)c4)n[nH]3)cc2)CC1", "VALUE": "170 µM"}
{"SAMPLE SMILES": "CCCNC(=O)c1cccc(-c2cc(-c3ccc(N4CCN(C)CC4)cc3)[nH]n2)c1", "VALUE": "330 µM"}
{"SAMPLE SMILES": "CC(C)NC(=O)c1cccc(-c2cc(-c3ccc(CNC4CCOCC4)cc3)on2)c1", "VALUE": "140 µM"}
{"SAMPLE SMILES": "CC(C)NC(=O)c1cccc(-c2cc(-c3ccc(N4CCN(C)CC4)c(Br)c3)[nH]n2)c1", "VALUE": "40 µM"}
{"SAMPLE SMILES": "C[C@@H](C#N)NC(=O)c1cccc(-c2cc(-c3ccc(CNC4CCOCC4)cc3)on2)c1", "VALUE": "110 µM"}
{"SAMPLE SMILES": "CN(C)CCNC(=O)c1cccc(-c2cc(-c3ccc(N4CCN(C)CC4)cc3)[nH]n2)c1", "VALUE": "> 960 µM"}
{"SAMPLE SMILES": "CN1CCN(c2ccc(-c3cc(-c4cccc(C(=O)NCC#N)c4)no3)cc2)CC1", "VALUE": "< 10 µM"}
{"SAMPLE SMILES": "COCCNCc1ccc(-c2cc(-c3cccc(C(=O)NC(C)C)c3)n[nH]2)cc1", "VALUE": "910 µM"}
{"SAMPLE SMILES": "CC(C)NCc1ccc(-c2cc(-c3cccc(C(=O)N[C@H](C)C#N)c3)no2)cc1", "VALUE": "> 870 µM"}
{"SAMPLE SMILES": "CN1CCN(c2ccc(-c3cc(-c4cccc(C(=O)NCC#N)c4)n[nH]3)cc2)CC1", "VALUE": "50 µM"}
{"SAMPLE SMILES": "CC(C)NCc1ccc(-c2cc(-c3cccc(C(=O)N[C@H](C)C#N)c3)[nH]n2)cc1", "VALUE": "> 990 µM"}
{"SAMPLE SMILES": "CC(C)NC(=O)c1cccc(-c2cc(-c3ccc(CNC4CC4)cc3)[nH]n2)c1", "VALUE": "220 µM"}
{"SAMPLE SMILES": "N#CCNC(=O)c1cccc(-c2cc(-c3ccc(CNC4CCOCC4)cc3)on2)c1", "VALUE": "170 µM"}
{"SAMPLE SMILES": "CC(C)(C#N)NC(=O)c1cccc(-c2cc(-c3ccc(CNC4CCOCC4)cc3)on2)c1", "VALUE": "70 µM"}
{"SAMPLE SMILES": "CC(C)NC(=O)c1cccc(-c2cc(-c3ccc(N4CCN(C)CC4)cc3)[nH]n2)c1", "VALUE": "270 µM"}
{"SAMPLE SMILES": "C[C@H](C#N)NC(=O)c1cccc(-c2cc(-c3ccc(N4CCN(C)CC4)cc3)on2)c1", "VALUE": "< 10 µM"}
{"SAMPLE SMILES": "CC(C)NCc1ccc(-c2cc(-c3cccc(C(=O)NC(C)C)c3)[nH]n2)cc1", "VALUE": "> 970 µM"}

// provenance: ChEMBL document CHEMBL1681675
